Record form. Attribute: ΔTm Run 2. Fill in for each entry.
# TARGET OR SYSTEM: UniProtKB E9AMP2
# PROTOCOL NOTES: biochemical
# Format: binding
# EXPERIMENTAL CONDITIONS: DSF, 10 µM compound, 2 µM LmxCLK1, Run 2
One number for each entry, in °C.

INSERT INTO results (molecule, unit_tag, number) VALUES
  ('COc1cc2ncc(-c3ccccc3)nc2cc1OC', '°C', 0.1),
  ('COc1cc2ncnc(Nc3ccc(F)c(Cl)c3)c2cc1NC(=O)/C=C/CN1CCCCC1', '°C', -0.5),
  ('COc1cccc(-c2cc(=O)c3ccccc3o2)c1N', '°C', -0.2),
  ('CCN1CCN(Cc2ccc(-c3cc4c(N[C@H](C)c5ccccc5)ncnc4[nH]3)cc2)CC1', '°C', 0.3),
  ('CCCCCCCCc1ccc(CCC(N)(CO)CO)cc1.Cl [Fingolimod (FTY720) HCl]', '°C', -0.1),
  ('Nc1ncnc2c1c(-c1cccc(OCc3ccccc3)c1)cn2C1CC(CN2CCCC2)C1 (stereo not shown)', '°C', -0.2);

Go through the list and state ΔTm Run 2 for each entry.
1. CCN1/C(=C/C(C)=O)Sc2ccc(OC)cc21
2. CS(=O)(=O)O.Cn1cc(C2=C(c3cn(CCCSC(=N)N)c4ccccc34)C(=O)NC2=O)c2ccccc21 [Ro 31-8220 Mesylate]
3. C=CC(=O)Nc1cccc(Nc2nc(Nc3ccc(Oc4ccnc(C(=O)NC)c4)cc3)ncc2F)c1
4. O=C(NC[C@H](O)CO)c1ccncc1Nc1ccc(I)cc1F

Result:
[1.2, 1.6, 0.0, -0.1]

Go through the list and state ΔTm Run 2 for each entry.
1. C[C@]1(O)C[C@@H](c2nc(-c3ccc4ccc(-c5ccccc5)nc4c3)c3c(N)nccn32)C1
2. COC(=O)Nc1ccc(-c2nc(N3CCOCC3)c3cnn(C4CCN(C(=O)OC)CC4)c3n2)cc1
3. COc1ccccc1-c1cc(Nc2cccc(CS(N)(=O)=O)c2)ncn1
4. CC(C)c1cnn2c(NCc3ccccc3)cc(NCCCCCCN)nc12.Cl [BS-181 HCl]

Result:
[-0.3, -0.2, 0.0, -0.2]

Go through the list and state ΔTm Run 2 for each entry.
1. COc1cc2c(N3CCN(C(=O)Nc4ccc(OC(C)C)cc4)CC3)ncnc2cc1OCCCN1CCCCC1
2. COc1cc2nccc(Oc3ccc(NC(=O)C4(C(=O)Nc5ccc(F)cc5)CC4)cc3)c2cc1OC.O=C(O)C[C@H](O)C(=O)O [Cabozantinib malate (XL184)]

Result:
1. -0.1
2. -0.3

====

Record form. Attribute: ΔTm Run 2. Fill in for each entry.
# TARGET OR SYSTEM: LmxCLK1 (Leishmania mexicana)
# PROTOCOL NOTES: biochemical
# Format: binding
# EXPERIMENTAL CONDITIONS: DSF, 10 µM compound, 2 µM LmxCLK1, Run 2
One number for each entry, in °C.

Some compounds with known ΔTm Run 2 results, for comparison:
INSERT INTO assay_data (compound, number) VALUES
  ('Cc1cnc(-c2cnc(NCCNc3ccc(C#N)cn3)nc2-c2ccc(Cl)cc2Cl)[nH]1.Cl [CHIR-99021 (CT99021) HCl]', 0.0),
  ('CCN(CC)CCCC(C)Nc1nc(C)cc(Nc2ccc3nc(C)cc(N)c3c2)n1 (stereo not shown) [NSC 23766]', -0.1),
  ('COc1cc(Nc2c(C#N)cnc3cc(OCCCN4CCN(C)CC4)c(OC)cc23)c(Cl)cc1Cl [Bosutinib (SKI-606)]', 0.6);

Next, consider the following compound.
Ask: Bench note: what ΔTm Run 2 did C1=N/C2=N/c3ccc(OCCN4CCCC4)c(c3)COC/C=C/COCc3cccc(c3)C(=C1)N2 [Pacritinib (SB1518)] show?
Result: 0.1

====

# TARGET OR SYSTEM: LmxCLK1 (Leishmania mexicana, UniProt E9AMP2)
# PROTOCOL NOTES: biochemical
# Type: binding
# EXPERIMENTAL CONDITIONS: DSF, 10 µM compound, 2 µM LmxCLK1, Run 2; read-out: ΔTm Run 2
We use -0.1 °C as the dividing line for ΔTm at 10 µM: on or above the line is 1 (yes), below is 0 (no).

Illustrative cases are given below, each with its answer.
INSERT INTO assay_data (compound, label) VALUES
  ('Cc1ccc(C(=O)Nc2ccc(CN3CCN(C)CC3)c(C(F)(F)F)c2)cc1C#Cc1cnc2[nH]ncc2c1 [GZD824]', '1 (yes)'),
  ('C=CC(=O)Nc1cccc(Oc2nc(Nc3ccc(N4CCN(C)CC4)cc3OC)ncc2Cl)c1 [WZ4002]', '0 (no)'),
  ('Cc1ccc(Nc2nccc(N(C)c3ccc4c(C)n(C)nc4c3)n2)cc1S(N)(=O)=O [Pazopanib]', '0 (no)'),
  ('COc1cccc2cc(-c3nc([C@H]4CC[C@H](C(=O)O)CC4)n4ncnc(N)c34)[nH]c12 [OSI-027]', '0 (no)'),
  ('C=CC(=O)Nc1cc(Nc2nccc(-c3cn(C)c4ccccc34)n2)c(OC)cc1N(C)CCN(C)C [AZD9291]', '0 (no)'),
  ('Cc1cc(O)c2c(c1)C(=O)c1cccc(O)c1C2=O [Chrysophanic Acid]', '0 (no)'),
  ('COC(=O)[C@]12CCC(C)(C)C[C@H]1[C@H]1C(=O)C=C3[C@@]4(C)C=C(C#N)C(=O)C(C)(C)[C@@H]4CC[C@@]3(C)[C@]1(C)CC2 [Bardoxolone Methyl]', '1 (yes)'),
  ('C=CC(=O)Nc1ccc2ncnc(Nc3ccc(OCc4cccc(F)c4)c(Cl)c3)c2c1 [AST-1306]', '0 (no)');

Ask: Is ΔTm at 10 µM at least -0.1 °C? Consider CCOc1ccn(-c2ccc(F)cc2)c(=O)c1C(=O)Nc1ccc(Oc2ccnc(N)c2Cl)c(F)c1 [BMS-777607]
Result: 0 (no)

Ask: Also O=c1cc(N2CCOCC2)oc2c(-c3ccccc3)cccc12 [LY294002] ?
Result: 1 (yes)

Ask: Also Nc1nc(Nc2ccc(S(N)(=O)=O)cc2)nn1C(=O)c1c(F)cccc1F [JNJ-7706621] ?
Result: 1 (yes)

Ask: Also Cc1cc(Nc2cc(N3CCN(C)CC3)nc(/C=C/c3ccccc3)n2)n[nH]1 [ENMD-2076] ?
Result: 1 (yes)

Ask: Also COc1cc(Nc2ncc3c(n2)-c2ccc(Cl)cc2C(c2c(F)cccc2OC)=NC3)ccc1C(=O)O [Alisertib (MLN8237)] ?
Result: 0 (no)

Ask: Also O=C(c1ccc(/C=C/c2n[nH]c3ccccc23)cc1)N1CCNCC1 [KW-2449] ?
Result: 1 (yes)

====

Record form. Attribute: ΔTm Average. Fill in for each entry.
# TARGET OR SYSTEM: UniProt E9AMP2
# PROTOCOL NOTES: biochemical
# Format: binding
# EXPERIMENTAL CONDITIONS: DSF, 10 µM compound, 2 µM LmxCLK1, mean of two runs
Please give the number followed by its unit.

Some compounds with known ΔTm Average results, for comparison:
INSERT INTO assay_data (compound, target_or_system, result) VALUES
  ('CCCCCCCCc1ccc(CCC(N)(CO)CO)cc1.Cl [Fingolimod (FTY720) HCl]', 'UniProt E9AMP2', '0.1 °C'),
  ('CC(C)(C#N)c1ccc(N2C(=O)OCc3cnc4ccc(-c5cnc6ccccc6c5)cc4c32)cc1 [ETP-46464]', 'UniProt E9AMP2', '-0.1 °C'),
  ('COc1cc(Nc2c(C#N)cnc3cc(OCCCN4CCN(C)CC4)c(OC)cc23)c(Cl)cc1Cl [Bosutinib (SKI-606)]', 'UniProt E9AMP2', '0.5 °C');

Next, consider the following compound.
Ask: Bench note: what ΔTm Average did COc1ccc(-c2ccc3ncc4c(c3c2)n(-c2ccc(N3CCNCC3)c(C(F)(F)F)c2)c(=O)n4C)cn1 [BGT226 (NVP-BGT226)] show?
Result: 0.8 °C

====

# TARGET OR SYSTEM: NLuc::LmxCLK1 (Leishmania mexicana)
# Sequence (E9AMP2 entry or part of it): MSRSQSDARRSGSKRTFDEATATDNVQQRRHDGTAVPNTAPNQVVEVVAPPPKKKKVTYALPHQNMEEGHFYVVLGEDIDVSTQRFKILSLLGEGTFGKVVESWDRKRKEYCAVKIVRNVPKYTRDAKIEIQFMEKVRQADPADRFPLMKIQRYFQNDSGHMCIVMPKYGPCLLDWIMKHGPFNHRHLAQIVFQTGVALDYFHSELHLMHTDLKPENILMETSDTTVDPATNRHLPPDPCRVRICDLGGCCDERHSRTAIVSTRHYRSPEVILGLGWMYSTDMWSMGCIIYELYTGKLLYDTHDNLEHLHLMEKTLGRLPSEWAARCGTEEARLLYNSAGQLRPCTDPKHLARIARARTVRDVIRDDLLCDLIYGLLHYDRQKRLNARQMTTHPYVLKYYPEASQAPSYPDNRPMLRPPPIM
# PROTOCOL NOTES: In vitro BRET with purified NLuc::LmxCLK1
# Format: binding
# EXPERIMENTAL CONDITIONS: read-out: EC50 tracer titration, purified NLuc::LmxCLK1; BRET probe binding
OBSERVED PROPERTY: EC50 (nM)
Give bare numbers, in nM.

Ask: Bench note: what EC50 did Cc1ccc(C(=O)Nc2ccc(CN3CCN(CCCNC(=O)c4ccc(C(=O)O)c(-c5c6ccc(=O)cc-6oc6cc(O)ccc56)c4)CC3)c(C(F)(F)F)c2)cc1C#Cc1cnc2[nH]ncc2c1 [SV366] show?
Result: 8.4

Attribution: paper PMC7619385
